# target-of-assay: recombinant human Myt1 (Homo sapiens (Human))
# experiment-description: Myt1 enzymatic assay (ADP-Glo kinase assay)
# assay-setup: recombinant human Myt1 18 nM, ATP 10 μM
measured-parameter: pIC50
In simple prose, pIC50 is minus the logarithm base ten of a concentration in moles per litre.

Consider the reported pIC50 for these molecules:
Nc1c(-c2cccc3[nH]ncc23)cc(-c2ncc(Cl)s2)c2nc[nH]c(=O)c12 = 7.55
Cc1ccc(O)cc1-c1cc(-c2ncc(C(=O)NCCO)s2)c2c(c1N)C(=O)NC2 = 6.68
Nc1c(-c2cccc3[nH]ncc23)cc(-c2ccc(F)s2)c2nc[nH]c(=O)c12 = 7.82
Nc1c(-c2cccc3[nH]ncc23)cc(-c2ncc(F)cn2)c2nc[nH]c(=O)c12 = 6.72
Nc1c(-c2cccc3[nH]ncc23)cc(-n2ccc(C3CC3)n2)c2nc(-c3cccnc3)[nH]c(=O)c12 = 7.96
COCCNc1ccc(-c2nc3c(Br)cc(-c4cccc5[nH]ncc45)c(N)c3c(=O)[nH]2)cn1 = 8.52
Nc1c(-c2cccc3[nH]ncc23)cc(-c2nccs2)c2nc(-c3cccc(CN4CCOCC4)c3)[nH]c(=O)c12 = 7.74

// next entry
**Query** Lab note: need pIC50 with recombinant human Myt1 (Homo sapiens (Human)) for entry Cc1ccc(O)cc1-c1cc(-c2nc(C(=O)N3CCOCC3)cs2)c2c(c1N)C(=O)NC2 , please look it up.
**Result** 6.61

====

# target-of-assay: recombinant human Myt1 (Homo sapiens (Human), UniProt Q99640)
# Sequence (Q99640 whole entry): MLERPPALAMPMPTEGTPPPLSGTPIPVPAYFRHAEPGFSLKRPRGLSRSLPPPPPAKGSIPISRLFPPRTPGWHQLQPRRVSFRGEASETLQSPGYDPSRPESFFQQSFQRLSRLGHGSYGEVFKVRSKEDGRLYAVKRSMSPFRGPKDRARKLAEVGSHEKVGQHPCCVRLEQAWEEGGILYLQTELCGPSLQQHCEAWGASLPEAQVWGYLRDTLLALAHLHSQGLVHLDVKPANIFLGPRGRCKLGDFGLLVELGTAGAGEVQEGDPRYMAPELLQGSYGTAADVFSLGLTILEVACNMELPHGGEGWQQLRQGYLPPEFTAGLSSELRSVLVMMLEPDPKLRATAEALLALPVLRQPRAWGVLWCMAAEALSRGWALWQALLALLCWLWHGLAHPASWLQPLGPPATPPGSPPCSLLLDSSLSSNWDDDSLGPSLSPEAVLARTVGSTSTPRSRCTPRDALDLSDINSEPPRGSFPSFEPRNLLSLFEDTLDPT
# experiment-description: Myt1 enzymatic assay (ADP-Glo kinase assay)
# assay-setup: recombinant human Myt1 18 nM, ATP 10 μM
// reported IC50 for each item listed
Just the number please, in nM, no unit attached.

See these solved cases before continuing.
Cc1ccc2[nH]ncc2c1-c1cc(-c2cccc(OCc3ncco3)n2)c2nc[nH]c(=O)c2c1N = 5
Cc1ccc2[nH]ncc2c1-c1cc(-c2nccs2)c2nc[nH]c(=O)c2c1N = 5
Nc1c(-c2cccc3[nH]ncc23)cc(-c2nccs2)c2nc(-c3ccc(N4CCOCC4)nc3)[nH]c(=O)c12 = 15

Consider the record given below.
**Query** Record request: IC50 value, item Nc1c(-c2cccc3[nH]ncc23)cc(Br)c2nc(-c3ccc(N4CCCCC4CO)nc3)[nH]c(=O)c12 (stereo not shown)
**Result** 11

====

# target-of-assay: recombinant human Myt1 (Homo sapiens (Human))
# experiment-description: Myt1 enzymatic assay (ADP-Glo kinase assay)
# assay-setup: recombinant human Myt1 18 nM, ATP 10 μM
Documented pIC50 across a set of compounds
Entry type: numeric. Quantity: pIC50, the -log10 of concentration in molar units.

# example entries with known answers
Cc1ccc(O)cc1-c1cc(-c2ncc(CN3CCOCC3)s2)c2c(c1N)C(=O)NC2 [Compound 143] = 5.80
Nc1c(-c2cccc3[nH]ncc23)cc(-c2ccc(C(F)(F)F)s2)c2nc[nH]c(=O)c12 [Compound 126] = 6.06
Nc1c(-c2cccc3[nH]ncc23)cc(-c2cccc(OCC(=O)O)c2)c2nc[nH]c(=O)c12 [Compound 94] = 7.34
Nc1c(-c2cccc3[nH]ncc23)cc(C2=CCC(F)(F)CC2)c2nc(-c3ccncc3)[nH]c(=O)c12 [Compound 71] = 7.68
CN1CCN(c2cc(-c3nc4c(Br)cc(-c5cccc6[nH]ncc56)c(N)c4c(=O)[nH]3)ccn2)CC1 [Compound 38] = 8.00

**Query** Which measured pIC50 value corresponds to Cc1ccc(O)cc1-c1cc(-c2ncc(Cl)s2)c2c(c1N)C(=O)NC2 [Compound 156] ?
**Result** 6.24

**Query** Name the recorded pIC50 for Nc1c(-c2cccc3[nH]ncc23)cc(-c2nccs2)c2nc(C3CCOCC3)[nH]c(=O)c12 [Compound 13] .
**Result** 5.85

**Query** Fill in the blank: the reported pIC50 of Cc1ccc(O)cc1-c1cc(-c2ncccn2)c2c(c1N)C(=O)NC2 [Compound 108] is ____.
**Result** 7.14

These data points were gathered from patent US20230348456A1.
